- TARGET_ENTITY: T1, human angiotensin 2 type 1 receptor (human, UniProt P30556 1-359)
- T1 sequence (looked up): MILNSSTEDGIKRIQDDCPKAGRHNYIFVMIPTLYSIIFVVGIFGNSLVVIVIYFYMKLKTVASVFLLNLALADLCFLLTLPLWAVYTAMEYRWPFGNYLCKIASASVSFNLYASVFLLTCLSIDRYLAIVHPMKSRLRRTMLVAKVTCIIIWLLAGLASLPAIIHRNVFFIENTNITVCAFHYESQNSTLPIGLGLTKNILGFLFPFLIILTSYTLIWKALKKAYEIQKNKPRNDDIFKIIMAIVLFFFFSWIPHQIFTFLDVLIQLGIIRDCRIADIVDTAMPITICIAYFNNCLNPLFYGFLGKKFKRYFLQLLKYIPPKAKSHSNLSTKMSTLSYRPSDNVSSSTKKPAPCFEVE
- TEST: cell-based or functional assay
Where no end group is shown, it is not given here. [ ]: non-standard residue; d: D form. Ac6c = NC1(C(=O)O)CCCCC1; Aib = CC(C)(N)C(=O)O; Sar = CNCC(=O)O
Below: a set of entries, each annotated with reported beta-arrestin2 assay EC50.

BINDER	MEASUREMENT_KIND	OBS_VALUE
[Sar]RVY[Ac6c]HPW [SEQ ID NO: 54 (Sar-Arg-Val-Tyr-cyHex-His-Pro-Trp)]	beta-arrestin2 assay EC50	> 3.2 nM

Enquiry: Endpoint output: beta-arrestin2 assay EC50 of [Sar]RVY[Aib]HPV [SEQ ID NO: 33 (Sar-Arg-Val-Tyr-AA01-His-Pro-Val)] . Value?
Return: > 3.2 nM

Enquiry: Lookup [Sar]RVY[Ac6c]HP [SEQ ID NO: 41 (Sar-Arg-Val-Tyr-cyHex-His-Pro)]
Return: > 3.2 nM

Enquiry: Lookup [Sar]RVY[Ac6c]HPN [SEQ ID NO: 36 (Sar-Arg-Val-Tyr-cyHex-His-Pro-Asn)]
Return: > 3.2 nM
